Cited source: patent US9120851B2

Test system: C57BL/6 mice given hANGPTL4-mFc
Format: in vivo
test.context: antibody 5 mg/kg s.c.; 24 h later hANGPTL4-mFc 25 μg/mouse i.v.; bled 30 min after; mean±SEM
endpoint.label: HDL (mg/dL)
Only the number, expressed in mg/dL, is required.

Given the molecule H1H653P: anti-hANGPTL4 antibody, HCVR/LCVR SEQ ID NOs 306/308 (antibody, V domains shown) VH: QVQLVESGGGVVQPGRSLRLSCVASGFTFSSYGMHWVRQAPGKGLEWMAVIWYDGSNKYFADSVKDRFTISRDNSKNTLYLQMNTLRPDDTAVYYCVKADAPLLIYGVDVWGQGTTVTVS VL: DIQMTQSPSSLSASVGDRVTITCRASQGIRNDLGWYQEKPGKAPKRLIYFASSLQSGVPSRFSGSGSGTEFTLTISSLQPEDFATYYCLQHNSYPYTFGQGTKLEIK , what is its reported HDL?
40.10
